Assay: Biochemical counterscreen for C difficile toxins, absence of UDPG, inhibitor dose response (AID 720650)
Conditions: series mostly up to 19.5 µM
The source made the active and inactive calls. No rule for the calls is given here.
Give your call using only these classes: active, inactive

q: Which outcome did this test record for the compound Cc1cnc(C(=O)OCC(=O)Nc2ccc(OCc3ccccc3)cc2)cn1 ?
a: inactive

Others:
q: Which outcome did this test record for the compound CC(=O)Nc1ccc(NC(=O)[C@@H]2CCCN2S(=O)(=O)c2ccc3c(c2)OCCO3)cc1 ?
a: inactive

q: Which outcome did this test record for the compound Cn1cc(S(=O)(=O)CC(=O)N2CCCc3ccccc32)c2ccccc21 ?
a: inactive

q: Which outcome did this test record for the compound O=C(O)c1ccccc1C(=O)c1ccc2c(c1)N(Cc1cccc(F)c1)C(=O)CO2 ?
a: active

q: Which outcome did this test record for the compound O=C(CC(c1ccccc1)c1ccccc1)Nc1ccc(O)cc1 ?
a: active

###

Assay: Biochemical counterscreen for C difficile toxins, absence of UDPG, inhibitor dose response (AID 720650)
Conditions: series mostly up to 19.5 µM
Activity calls are given as the source filed them. How the calls were made is not given here.
Give your call using only these classes: active, inactive

Some solved cases for reference:
q: Which outcome did this test record for the molecule CCN(CCN(C)C)C(=O)C1CCN(S(=O)(=O)c2c(C)noc2/C=C/c2ccccc2F)CC1 ?
a: inactive

q: Which outcome did this test record for the molecule CCOC(=O)c1ccc(-n2c(CCC(=O)O)ccc2-c2ccc(F)cc2)cc1 ?
a: inactive

Others:
q: Which outcome did this test record for the molecule CNc1cncc(-c2ccc(O)cc2)n1 ?
a: active

q: Which outcome did this test record for the molecule COC(=O)C[C@@H]1CC[C@@H]2[C@H](COC[C@H](O)CN2C(=O)Nc2ccccc2OC)O1 ?
a: inactive

q: Which outcome did this test record for the molecule c1ccc(Cc2nnc3n2N=C(c2ccccc2)CS3)cc1 ?
a: inactive

###

Test: Biochemical counterscreen for C difficile toxins, absence of UDPG, inhibitor dose response (AID 720650)
Conditions: series mostly up to 19.5 µM
Calls of active or inactive are those of the source. The rule behind the calls is not given here.
Give your call using only these classes: class 1 = active, class 0 = inactive

q: Which outcome did this test record for the compound COCCCNC(=O)C1CCN(S(=O)(=O)c2c(C)noc2/C=C\c2ccc(OC)cc2)CC1 ?
a: class 0

q: Which outcome did this test record for the compound COc1ccccc1C(=O)Nc1cccc(Oc2c(F)c(F)c(F)c(F)c2F)c1 ?
a: class 0

q: Which outcome did this test record for the compound CCN(C(=O)CN1C(=O)NC2(CCC(C)CC2)C1=O)C1CCCCC1 (configuration not stated) ?
a: class 0

q: Which outcome did this test record for the compound NC(=O)Nc1ccc(Nc2ccccc2)cc1 ?
a: class 0

q: Which outcome did this test record for the compound O=[N+]([O-])c1ccc(/C=C/c2ccc3ccccc3n2)cc1 ?
a: class 0

q: Which outcome did this test record for the compound Oc1cc(O)cc(/C=C/c2ccc(O)c(O)c2)c1 ?
a: class 0

q: Which outcome did this test record for the compound COc1ccccc1CNC(=O)CNC(=O)N1CC(=O)Nc2ccccc21 ?
a: class 0

q: Which outcome did this test record for the compound CC[C@H](C)[C@H]1CNC(=S)N1CC1CCN(CCCC2CCCC2)CC1 ?
a: class 0

q: Which outcome did this test record for the compound COc1ccc(C)cc1NC(=O)C(OC(=O)C1=NNC(=O)CC1)c1ccccc1 (configuration not stated) ?
a: class 0

q: Which outcome did this test record for the compound CC(C)OC(=O)c1cccc(C(=O)O)n1 ?
a: class 0

Others:
q: Which outcome did this test record for the compound CC(=O)Nc1ccc(N(C(=O)c2ccco2)C(C(=O)NC2CCCC2)c2cccs2)cc1 (configuration not stated) ?
a: class 0

q: Which outcome did this test record for the compound CN(c1ccccc1)S(=O)(=O)c1cccc(C(=O)NCCc2ccc(O)c(O)c2)c1 ?
a: class 0

q: Which outcome did this test record for the compound O=C(NC(=S)Nc1ccc(N2CCOCC2)cc1)c1ccccc1 ?
a: class 0

q: Which outcome did this test record for the compound CCOC(CCNC(=O)c1cn(CCOC)c(=O)c2c1c1ccccc1n2C)OCC ?
a: class 0

q: Which outcome did this test record for the compound CN(CCN1CCOCC1)C(=O)CC1C(=O)NCCN1Cc1ccccc1C(F)(F)F (configuration not stated) ?
a: class 0

q: Which outcome did this test record for the compound O=C(Nc1ccc(O)cc1)/C(=C\c1ccncc1)NC(=O)c1ccccc1 ?
a: class 1
